# System: NCI-H23 lung
# testDescription: NCI-60 one-dose screen, 48 h
# details: 10 µM unless noted
This is part of a sample that, as a whole, favours compounds with a hit. Of some 83,000 tested, about 20% had one in any assay. Activity calls are given as the source filed them. The calls were made as follows: active = growth percent below 10; inactive = the rest.
Outcomes: yes (active), no (inactive)

1. CCN(CC)CCSC(=O)C(O)(c1ccccc1)C1CCCC1 (centres undefined) :: no
2. CCN(CC)c1ccc(/C=C/C=C2\NC(=O)NC2=O)cc1 :: no
3. O=C1C(Cl)=C(Nc2ccc3cn[nH]c3c2)C(=O)c2ccccc21 :: yes
4. CC(=O)n1cc(C=O)c2ccccc21 :: no
5. Cc1ccc(S(=O)(=O)Nc2ccccc2)cc1N :: no
6. COc1ccc2c(c1)C(C)Cc1c(Cl)ncnc1N2C (centres undefined) :: yes
7. O=S(=O)(c1ccc(N/N=C\c2ccccc2Cl)cc1)c1ccc(N/N=C/c2ccccc2Cl)cc1 :: no
8. C[C@@H]1C[C@H]2C(=O)O[C@@H](C)[C@H](NC(=O)[C@H](Cc3cc(F)cc(F)c3)NC(=O)Nc3ccc(C4CC4)cc3F)C(=O)N3CCC[C@H]3C(=O)N3CCCC[C@H]3C(=O)N[C@@H](C)C(=O)N2C1 :: no
9. CC1(C)CC[C@]2(C(=O)O)CC[C@]3(C)C(=CC[C@@H]4[C@@]5(C)C/C(=C/c6cccnc6)[C@H](O)C(C)(C)[C@@H]5CC[C@]43C)[C@@H]2C1 :: yes
10. CC1Cc2c(Cl)ncnc2N(C)c2ccc(O)cc21 (centres undefined) :: no
11. CC[C@]12C=CCN3CC[C@@]4(c5ccc(OC)cc5N(C)[C@H]4[C@@](O)(C(=O)OC)[C@@H]1OC(=O)CCC(=O)O[C@H]1CC[C@H]4[C@@H]5CCC6=CC(=O)CC[C@@H]6[C@H]5CC[C@]14C)[C@@H]32 :: no
12. C=CCCC1(C)NC(=O)NC1=O (centres undefined) :: no
13. CN(Cc1cccc(C(F)(F)F)c1)C(=O)[C@@H](CC(=O)N1CCC(N2CCCCC2)CC1)N1C(=O)[C@@H](N2C(=O)OC[C@@H]2c2ccccc2)[C@H]1/C=C/c1ccccc1 :: no
14. NC1=NC(=O)NC1(c1ccccc1)c1ccccc1 :: no
15. c1ccc(-c2nnc(-c3c[nH]c4ncccc34)s2)cc1 :: no
16. O=C(CCNCc1ccccc1)c1ccccc1 :: no
17. CCCCN(CC)CC(CC)Nc1cc(OC)cc2cccnc12 (centres undefined) :: no
18. Nc1cc(NN=C(c2ccc(O)cc2)c2ccc(O)cc2)c([N+](=O)[O-])cc1[N+](=O)[O-] :: yes
19. O=C(CSc1nc2ccc([N+](=O)[O-])cc2[nH]1)Nc1cccc(Cl)c1 :: yes
20. c1ccc2c(c1)CN(CCCN1CCOCC1)C2 :: no
21. COC(=O)C(=Cc1ccccc1[N+](=O)[O-])C(=O)OC :: no
22. Nc1nc(Cl)c2ncn(Cc3cc4c(cc3I)OCO4)c2n1 :: no
23. COc1ccc(NCc2cn(-c3ccc(C(=O)O)cc3)nc2-c2ccc(C(=O)O)cc2)cc1C(F)(F)F :: no
24. CCOC(=O)c1nn(C2CCCCO2)c2ccc(NC(=O)CN3CCOCC3)cc12 (centres undefined) :: no
25. O=c1c2c3c(sc2n2cnnc2n1Cc1ccccc1)CCCC3 :: no
26. Cc1cc(C)c(-c2cc(O)c(-c3c(C)cc(C)cc3C)cc2O)c(C)c1 :: no
27. O=C1Nc2ccccc2/C1=C/C(=O)c1ccc(N2CCCCC2)cc1 :: no
28. CCOc1ccc(S(=O)(=O)Nc2ccc3c(c2)N(S(=O)(=O)CC)CCC3)cc1 :: no
29. CCCCN(CCCC)CC(O)c1ccc(OCc2ccccc2)c2ccccc12 (centres undefined) :: no
30. O=C(NCc1ccccc1)C(Cl)Cl :: no
31. Nc1nc(N)c2c(n1)NC(c1ccc(F)cc1)C1CCc3ccccc3C1=N2 (centres undefined) :: no
32. O=C1CC(c2ccc3c(c2)OCO3)Nc2ccccc21 (centres undefined) :: no
33. Nc1cccc2c1C(=O)c1cccc(NC(=O)c3ccccc3)c1C2=O :: no
34. COC(=O)c1c(C)[nH]c(/C=C2\N=C(c3ccc[nH]3)C=C2OC)c1C :: no
35. CC1(C)CC[C@]2(C(=O)O)CC[C@]3(C)[C@H](CC[C@@H]4[C@@]5(C)CCC(=O)C(C)(C)[C@@H]5CC[C@]43C)[C@H]2[C@H]1OC(=O)C(F)(F)F :: yes
36. COc1cccc(-c2[nH]c(=S)ncc2C(=O)c2ccccc2)c1 :: no
37. COc1ccc2[nH]c(C(=O)N3CCN(C(=O)OCc4ccc5c(Br)cc(Br)c(O)c5n4)CC3)cc2c1 :: yes
38. C[n+]1cccc(NC(=O)c2ccc3ccc4ccc(C(=O)Nc5ccc[n+](C)c5)nc4c3n2)c1 :: no
39. O=C1/C(=C\c2cn(CC(O)CN3CCCCC3)c3ccccc23)c2ccccc2N1c1c(Cl)cccc1Cl (centres undefined) :: yes
